biological target: D(2) dopamine receptor (Homo sapiens); assay: Dopamine D2 receptor (DRD2) small molecule antagonists, cell-based qHTS assay (AID 1963595); conditions: HEK293-DRD2 cAMP HTRF antagonist mode; series mostly up to 92.4 µM
Records with an inconclusive call do not appear. Activity calls are given as the source filed them. The call rests on the fitted dose curve; in most records, active means well fitted inhibition curve with a large enough effect in the signal ratio in the repeat runs, with a control signal flat; inconclusive means weak or mixed curves, or effect the other way; inactive means flat fitted curve, though single readings scatter; the % refers to the signal ratio.
READOUT KIND: outcome

Consider the following illustrative entries.
[[record]]
compound = "CCN(Cc1ccc(Cl)nc1)/C(=C/[N+](=O)[O-])NC"
recorded_result = "inactive"

[[record]]
compound = "O=S(=O)(Cl)Cl"
recorded_result = "inactive"

[[record]]
compound = "ClC1=C(Cl)[C@]2(Cl)[C@@H]3[C@@H](Cl)[C@H](Cl)C[C@@H]3[C@@]1(Cl)C2(Cl)Cl"
recorded_result = "inactive"

[[record]]
compound = "NC(=O)CF"
recorded_result = "inactive"

[[record]]
compound = "C1CS1"
recorded_result = "inactive"

[[record]]
compound = "CCN(CC)Cc1nccn1-c1ccc([N+](=O)[O-])cc1C(=O)c1ccccc1Cl"
recorded_result = "inactive"


// query Respond only with outcome recorded for CC(C)(C)C(O)(CCc1ccc(Cl)cc1)Cn1cncn1 (stereo not drawn)
// result inactive

// query Answer with reported outcome of ClC1=C(Cl)C2(Cl)C3C(Cl)C=CC3C1(Cl)C2(Cl)Cl (stereo not drawn)
// result inactive

// query For the compound N#Cc1cc(Br)c(O)c(Br)c1 , give its reported outcome.
// result inactive

// query Report outcome for Nc1cccc(Cl)c1
// result inactive

// query Provide measured outcome value, entry: CC(C)(Cl)Cl
// result inactive

// query Give outcome for the following compound: Clc1nc(Cl)nc(Cl)n1
// result inactive

// query Tell me its outcome given O=C(O)C(F)(F)C(F)(F)C(F)(F)C(F)(F)C(F)(F)C(F)(F)C(F)(F)F as the entry.
// result inactive

====

molecular target: D(2) dopamine receptor (Homo sapiens); assay: Dopamine D2 receptor (DRD2) small molecule antagonists, cell-based qHTS assay (AID 1963595); details: HEK293-DRD2 cAMP HTRF antagonist mode; series mostly up to 92.4 µM
Results filed as inconclusive are left out. Activity calls are given as the source filed them. Calls follow the shape of the dose curve; as a rule, active = well fitted inhibition curve with a large enough effect in the signal ratio in the repeat runs, with a control signal flat; inconclusive = weak or mixed curves, or effect the other way; inactive = flat fitted curve, though single readings scatter; the % refers to the signal ratio.
READOUT KIND: outcome

Worked cases, outcome given:
[[record]]
molecule = "C[C@@H]1O[C@@H](O[C@H]2C[C@@H](O)[C@]3(CO)[C@H]4[C@H](O)C[C@]5(C)[C@@H](C6=CC(=O)OC6)CC[C@]5(O)[C@@H]4CC[C@]3(O)C2)[C@H](O)[C@H](O)[C@H]1O"
test_target = "D(2) dopamine receptor (Homo sapiens)"
readout_kind = "outcome"
recorded_result = "inactive"

[[record]]
molecule = "CCOP(=S)(OCC)SCn1c(=O)oc2cc(Cl)ccc21"
test_target = "D(2) dopamine receptor (Homo sapiens)"
readout_kind = "outcome"
recorded_result = "inactive"

[[record]]
molecule = "COc1ccc(C=O)cc1"
test_target = "D(2) dopamine receptor (Homo sapiens)"
readout_kind = "outcome"
recorded_result = "inactive"

[[record]]
molecule = "Clc1ccc(C(c2ccccc2Cl)C(Cl)(Cl)Cl)cc1 (centres undefined)"
test_target = "D(2) dopamine receptor (Homo sapiens)"
readout_kind = "outcome"
recorded_result = "inactive"


// query Note down outcome recorded for CC(C=O)Cc1ccc2c(c1)OCO2 (centres undefined)
// result inactive

// query // fetch outcome given entry c1cc2c(c(N3CCNCC3)c1)OCCO2
// result inactive

// query Quick one: give measured outcome for CCOC(=O)C(C)OC(=O)c1cc(Oc2ccc(C(F)(F)F)cc2Cl)ccc1[N+](=O)[O-] (centres undefined)
// result inactive

// query For the molecule CCCCCCCCCCCCCCn1cc[n+](C)c1 , give its reported outcome.
// result inactive

// query For O=C(NC(=O)c1c(F)cccc1F)Nc1ccc(Cl)cc1 , write its outcome.
// result inactive

// query Name the recorded outcome of the molecule listed here: CC(Cl)Cl
// result inactive

// query Identify the reported outcome for the following entry. CC1(C)[C@H](C(=O)O[C@H](C#N)c2cccc(Oc3ccccc3)c2)[C@@H]1C=C(Br)Br
// result inactive

// query Read the entry CN1CSC(=S)N(C)C1 and write its reported outcome.
// result inactive

// query Give the measured outcome for Cc1ncc(CNC(=O)N(CCCl)N=O)c(N)n1
// result inactive

// query Supply measured outcome of c1ccc(Nc2ccc3ccccc3c2)cc1 in your reply.
// result inactive

// query Please give measured outcome of the following entry: COc1ccc(O)c(C(C)(C)C)c1
// result inactive
